- Applied Conditions: fish
Reported Property: log10 biotransformation half-life (days)
# output: bare number, no unit

INPUT: Quick one: log10 biotransformation half-life (days) for `Nc1cc(Cl)c(Cl)cc1Cl` ?
OUTPUT: -0.01

INPUT: Quick one: log10 biotransformation half-life (days) for `Brc1ccccc1` ?
OUTPUT: -1.19

INPUT: Quick one: log10 biotransformation half-life (days) for `N#Cc1c(Cl)c(Cl)c(Cl)c(C#N)c1Cl` ?
OUTPUT: 0.27

INPUT: Quick one: log10 biotransformation half-life (days) for `Clc1c(Cl)c(Cl)c(Oc2c(Cl)c(Cl)c(Cl)c(Cl)c2Cl)c(Cl)c1Cl` ?
OUTPUT: 1.8

INPUT: Quick one: log10 biotransformation half-life (days) for `C=CCCCCCCCC` ?
OUTPUT: 0.65

INPUT: Quick one: log10 biotransformation half-life (days) for ClC1=C(Cl)[C@]2(Cl)[C@H]3[C@H]([C@@H]4C=C[C@H]3C4)[C@@]1(Cl)C2(Cl)Cl (racemic) ?
OUTPUT: 1.37

INPUT: Quick one: log10 biotransformation half-life (days) for `CC(C)OP(=O)(OC(C)C)SCc1ccccc1` ?
OUTPUT: -1.2

INPUT: Quick one: log10 biotransformation half-life (days) for `FC(F)(F)c1ccc(Cl)c(Cl)c1` ?
OUTPUT: 1.52

INPUT: Quick one: log10 biotransformation half-life (days) for `O=[N+]([O-])c1c(Cl)c(Cl)c(Cl)c(Cl)c1Cl` ?
OUTPUT: -0.17

INPUT: Quick one: log10 biotransformation half-life (days) for `CCOP(=S)(OCC)Oc1ccc(=O)n(-c2ccccc2)n1` ?
OUTPUT: -0.7

INPUT: Quick one: log10 biotransformation half-life (days) for `COP(=S)(OC)Oc1ccc(C#N)cc1` ?
OUTPUT: 0.23

INPUT: Quick one: log10 biotransformation half-life (days) for `Clc1ccc(-c2cc(Cl)c(Cl)cc2Cl)c(Cl)c1` ?
OUTPUT: 2.73

INPUT: Quick one: log10 biotransformation half-life (days) for `ClC(Cl)C(Cl)Cl` ?
OUTPUT: -0.67

INPUT: Quick one: log10 biotransformation half-life (days) for `ClC(Cl)(Cl)Cl` ?
OUTPUT: -1.19

INPUT: Quick one: log10 biotransformation half-life (days) for Clc1ccc(C(c2ccccc2Cl)C(Cl)Cl)cc1 (stereo unspecified) ?
OUTPUT: 1.65

INPUT: Quick one: log10 biotransformation half-life (days) for `Clc1ccccc1-c1c(Cl)cccc1Cl` ?
OUTPUT: 2.5
